Measured EC50 of individual entries
Target: T1, full-length beta-Catenin (Uniprot ID P35222) (Homo sapiens (Human), UniProt P35222 2-781)
T1 construct: The AlphaScreen assay used a Histidine (Nickel Chelate) detection kit, so a His tag is likely, but no tag is described; also called B-Catenin; bCat
T1 sequence: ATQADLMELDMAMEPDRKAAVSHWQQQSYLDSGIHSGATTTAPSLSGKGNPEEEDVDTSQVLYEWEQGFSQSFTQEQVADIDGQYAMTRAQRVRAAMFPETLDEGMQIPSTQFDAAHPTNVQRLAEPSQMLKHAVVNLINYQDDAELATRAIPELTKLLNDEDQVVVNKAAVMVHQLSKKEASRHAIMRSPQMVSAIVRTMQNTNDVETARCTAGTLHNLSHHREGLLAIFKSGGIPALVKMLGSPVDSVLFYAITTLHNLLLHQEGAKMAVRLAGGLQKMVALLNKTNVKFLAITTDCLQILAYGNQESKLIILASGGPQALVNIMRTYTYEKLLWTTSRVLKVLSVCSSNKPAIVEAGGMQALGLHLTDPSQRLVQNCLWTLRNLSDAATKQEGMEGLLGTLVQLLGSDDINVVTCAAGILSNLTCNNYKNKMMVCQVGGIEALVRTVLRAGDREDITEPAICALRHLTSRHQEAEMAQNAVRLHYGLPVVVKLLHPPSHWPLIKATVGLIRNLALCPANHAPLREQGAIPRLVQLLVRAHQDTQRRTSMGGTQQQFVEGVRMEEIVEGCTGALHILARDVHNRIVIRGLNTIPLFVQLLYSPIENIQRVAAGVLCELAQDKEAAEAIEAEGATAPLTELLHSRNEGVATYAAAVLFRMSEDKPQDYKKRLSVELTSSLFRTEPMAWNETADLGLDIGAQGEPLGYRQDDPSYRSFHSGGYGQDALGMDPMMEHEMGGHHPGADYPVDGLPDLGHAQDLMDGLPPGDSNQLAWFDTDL
Assay: fluorescence polarization competition: full-length beta-catenin + 5FAM-TCF4(10-53) probe, peptide titrated
Starred links: 1 amine or outer side, 2 acyl side, 3 side chain; linkers in the order of their positions; H or OH if unused. Positions of bridges follow the written chain, without caps; N, C: chain ends. Non-standard residues stand in square brackets, D forms with d. Primed or numbered codes have the meaning given here. B5(4) = 2,2-bis(4-pentenyl)glycine = 2-amino-2-(pent-4-en-1-yl)hept-6-enoic acid (stitching residue), C=CCCCC(CCCC=C)(N[*:1])C(=O)[*:2]; B5 = 2-amino-2-(pent-4-en-1-yl)hept-6-enoic acid, C=CCCCC(CCCC=C)(N[*:1])C(=O)[*:2]; Phe(3-CF3) = N[C@@H](Cc1cccc(C(F)(F)F)c1)C(=O)O; Phe(4-CF3) = N[C@@H](Cc1ccc(C(F)(F)F)cc1)C(=O)O; αAllylPro = C=CC[C@@]1(C(=O)O)CCCN1; S8 = C=CCCCCCC[C@](C)(N)C(=O)O

1. Ac-[αAllylPro]DA[B5]DDAAFV[S8][Phe(3-CF3)]WQ-NH2 (staple 1-4, 4-11, Stapled peptide composition; also called Ac-PL3-Asp-Ala-B5-Asp-Asp-Ala-Ala-Phe-Val-S8-3F3MeF-Trp-Gln-NH2) [I-250]    5 µM
2. Ac-[αAllylPro]DA[B5(4)]DDAAFV[S8][Phe(4-CF3)]WQ-NH2 (staple 1-4, 4-11, Stapled peptide composition; also called Ac-PL3-Asp-Ala-B5-Asp-Asp-Ala-Ala-Phe-Val-S8-4F3MeF-Trp-Gln-NH2) [I-255]    5 µM

The binder listed as Ac-[αAllylPro]DA[B5]DDAAFV[S8][Phe(3-CF3)]WQ-NH2 (staple 1-4, 4-11, Stapled peptide composition; also called Ac-PL3-Asp-Ala-B5-Asp-Asp-Ala-Ala-Phe-Val-S8-3F3MeF-Trp-Gln-NH2) [I-251] shows EC50 equal to 5 µM
